Data origin: PubChem BioAssay (NCI)

# Tested on: ACHN renal
# procedure-text: NCI tumour cell line growth inhibition, 48 h
Label rule, in plain words: TGI of 30 µM and up is yes (1), under 30 µM is no (0).

Worked set:
| compound | discrete-label |
| --- | --- |
| NCCSCCC(=O)O | yes (1) |
| CCCCCCCCCCCCC(O)c1ccco1 (stereo unspecified) | yes (1) |
| S=C1Cc2c(-c3ccc(Br)cc3)cc(-c3ccccc3)nc2-c2ccccc2N1 | no (0) |

Is it the case that Cc1ccc(N=C[N-]c2ccc(C)cc2)cc1.Cc1ccc(N=C[N-]c2ccc(C)cc2)cc1.O=C([O-])C(F)(F)F.O=C([O-])C(F)(F)F.[OH3+].[OH3+].[Rh+2].[Rh+2] has TGI reaching or exceeding 30 µM?
yes (1)

Is it the case that O=C(NC(=O)c1c(Cl)nc2sccn12)Nc1ccc(Cl)cc1 has TGI reaching or exceeding 30 µM?
yes (1)

Is it the case that O=C1CSC(c2ccccc2Cl)N1c1nnc(Cn2cnnc2)o1 (stereo unspecified) has TGI reaching or exceeding 30 µM?
yes (1)

Is it the case that O=[N+]([O-])/C(C(Cl)=C(Cl)Cl)=C(/Nc1cccc2cccnc12)n1nnc2ccccc21 has TGI reaching or exceeding 30 µM?
yes (1)

Is it the case that c1ccc(OCCC[P+](c2ccccc2)(c2ccccc2)c2ccccc2)cc1 has TGI reaching or exceeding 30 µM?
yes (1)

Is it the case that CCCCCCSSC(=S)N(CC)CC has TGI reaching or exceeding 30 µM?
yes (1)

Is it the case that O=C1/C(=C/c2cccc3ccccc23)CCc2ccc([N+](=O)[O-])cc21 has TGI reaching or exceeding 30 µM?
yes (1)

Is it the case that COc1cccc2cc(N(C)c3nc(C)nc4c3CCC4)ccc12 has TGI reaching or exceeding 30 µM?
no (0)

Is it the case that CN=C1C=CC(=C(c2ccc(N(C)C)cc2)c2ccc(N(C)C)cc2)C=C1 has TGI reaching or exceeding 30 µM?
no (0)

----------
# Tested on: SK-MEL-2 melanoma
# procedure-text: NCI tumour cell line growth inhibition, 48 h
Kindly supply the reported TGI values for the records listed here.
Numbers only, in µM.

| compound | target-under-test | assay-result |
| --- | --- | --- |
| O=C1/C(=C/c2ccc(F)cc2)CN(C(=O)CCN2CCC(=NO)CC2)C/C1=C\c1ccc(F)cc1 | SK-MEL-2 melanoma | 12.4 |
| CCCCCCCCCCCCC(O)c1ccco1 (stereo not given) | SK-MEL-2 melanoma | 46 |
| O=[N+]([O-])/C(C(Cl)=C(Cl)Cl)=C(/Nc1cccc2cccnc12)n1nnc2ccccc21 | SK-MEL-2 melanoma | 33.5 |

Proceed to the following item.
Input COc1cc2c(c(OC)c1OC)-c1ccc(SC)c(=O)cc1[C@@H](NCc1ccc([N+](=O)[O-])cc1)CC2 , output reported TGI.
19

----------
# System: HT29 colon
# procedure-text: NCI tumour cell line growth inhibition, 48 h
Label rule, in plain words: TGI of 30 µM and up is Condition met, under 30 µM is Condition not met.

Worked set:
| molecule | discrete-label |
| --- | --- |
| C#C[C@@]1(O)[C@@H](CO)O[C@@H](n2cc(I)c3c(N)ncnc32)[C@@H]1O | Condition not met |
| COc1ccccc1S(=O)(=O)Nc1ccc2c3c(cc(CCC(=O)NCCCCNc4cccc5c4C(=O)N(C4CCC(=O)NC4=O)C5=O)cc13)C(=O)N2C (stereo not drawn) | Condition met |
| Oc1ccc(Oc2cc3c(cc2Oc2ccc(O)cc2)-c2nc-3nc3[nH]c(nc4nc(nc5[nH]c(n2)c2cc(Oc6ccc(O)cc6)c(Oc6ccc(O)cc6)cc52)-c2cc(Oc5ccc(O)cc5)c(Oc5ccc(O)cc5)cc2-4)c2cc(Oc4ccc(O)cc4)c(Oc4ccc(O)cc4)cc32)cc1 | Condition met |
| CC/C(Cc1ccccc1)=C(\c1ccc(OCCN2CCCC2)cc1)c1ccc(OC(=O)NCc2ccccc2)cc1 | Condition not met |

Is it the case that CC(C)(C)OC(=O)c1ccc(NCC2=C(Br)C(=O)C=CC2=O)cc1 has TGI reaching or exceeding 30 µM?
Condition met

Is it the case that CCCCC#Cc1c(I)n(C)c(=O)[nH]c1=O has TGI reaching or exceeding 30 µM?
Condition not met

Is it the case that COC(=O)Cn1cnc2c(Cl)nc(Nc3ccccc3)nc21 has TGI reaching or exceeding 30 µM?
Condition met
